Entries and their measured pest or weed control at 250 g/ha follow.
Tested on: velvetleaf (Abutilon theophrasti)
Assay: Test G Pre-Emergence Protocol
Assay type: in vivo
Details: Abutilon theophrasti, pre-emergence, 312 h, 250 g ai/ha, evaluated after 13 days, read-out: Velvetleaf damage rating (100=total damage to plant; 0=no damage to plant)
Dear colleague, please return just the value in %, with no unit written.

Example entries begin here.
CN1CCC(NC(=O)[C@H]2C(=O)N(C)C[C@@H]2c2ccc(C(F)(F)F)cc2)C1=O (mixture of isomers) : 0
CN1C[C@H](c2cccc(C(F)(F)F)c2)[C@@H](C(=O)Nc2cccnc2F)C1=O (racemic) : 50
COC(=O)c1cc([C@H]2CN(C)C(=O)[C@@H]2C(=O)Nc2cccc(F)c2F)ccc1C (racemic) : 30

State its pest or weed control at 250 g/ha on velvetleaf (Abutilon theophrasti): CN1C[C@H](c2ccc(C(F)F)cc2)[C@@H](C(=O)Nc2cnccc2C(F)(F)F)C1=O (racemic)
80

Consider next the compound Cc1ccncc1NC(=O)[C@@H]1C(=O)N(C)C[C@H]1c1ccc(C(F)(F)F)cc1 (racemic) in the same way.
0

Also, CCOc1cc([C@@H]2CN(C)C(=O)[C@H]2C(=O)Nc2cccc(F)c2C)ccc1F (racemic) please.
30

Quick one: CN1C[C@H](c2cccc(C(F)(F)F)c2)[C@@H](C(=O)Nc2cccc(F)n2)C1=O (racemic)
60
